measuredParameter: melting point

Would you kindly share the measured melting point for CCCCCS(=O)(=O)NC(=O)c1ccc2[nH]c(C)c(Cc3ccc(OCc4ccccc4)cc3)c2c1 ? 180 to 184 °C

Another compound to check: CCCCS(=O)(=O)NC(=O)c1ccc2[nH]c(C)c(C(=O)c3ccc(Cl)cc3Cl)c2c1 241 to 243 °C

Another compound to check: CCCCCS(=O)(=O)NC(=O)c1ccc2[nH]c(C)c(Cc3ccccc3Cl)c2c1 175 to 177 °C

Another compound to check: CCCCS(=O)(=O)NC(=O)c1ccc2c(Cc3ccc(Cl)cc3Cl)c(C)[nH]c2c1 249 to 250 °C

====

Each item that follows carries a reported melting point.

Look over these answered cases.
{"smilesData": "CCCS(=O)(=O)NC(=O)c1ccc2[nH]c(C)c(Cc3ccc(Cl)cc3Cl)c2c1", "measuredValue": "161 to 163 °C"}
{"smilesData": "Cc1[nH]c2ccc(C(=O)NS(=O)(=O)c3ccccc3)cc2c1Cc1ccc(Cl)cc1Cl", "measuredValue": "244 to 245 °C"}
{"smilesData": "CCCCCS(=O)(=O)NC(=O)c1ccc2[nH]c(C)c(Cc3ccc(-c4ccccc4)cc3)c2c1", "measuredValue": "189 to 190 °C"}

Please find the next molecule below.
Would you kindly share the measured melting point for CCCCS(=O)(=O)NC(=O)c1ccc2[nH]cc(Cc3ccc(Cl)cc3Cl)c2c1 ? 165.5 to 166.2 °C

====

measuredParameter: melting point

Look over these answered cases.
{"smilesData": "Cc1[nH]c2ccc(C(=O)NS(=O)(=O)C(F)(F)F)cc2c1Cc1ccc(Cl)cc1Cl", "melting point": "201 to 205 °C"}
{"smilesData": "Cc1[nH]c2ccc(C(=O)NS(=O)(=O)CCC(C)C)cc2c1Cc1ccc(Cl)cc1Cl", "melting point": "167 to 169 °C"}

Would you kindly share the measured melting point for CCCCCS(=O)(=O)NC(=O)c1ccc2[nH]c(CCC)c(Cc3ccc(Cl)cc3Cl)c2c1 ? 168 to 169 °C

Another molecule to check: CCCCCCS(=O)(=O)NC(=O)c1ccc2[nH]c(C)c(Cc3ccc(Cl)cc3Cl)c2c1 183 to 185 °C

Another molecule to check: CCCCS(=O)(=O)NC(=O)c1ccc2c(C)c(Cc3ccc(Cl)cc3Cl)[nH]c2c1 215.5 to 216.1 °C
